Just for reference, patent US20260256136A1 is where these values come from.

# ASSAY_DETAILS: Accelerated storage test of aldehyde mixture with additive, 40 ppm Cu (Example 1)
# Format: physicochemical
# MEASUREMENT_CONTEXT: after 55° C. 14 days without cap, before test 69.4, blank 54.83784, in % (unit assumed)
ENDPOINT_NAME: Z11-16Ald

1. CCCOC(=O)c1cc(O)c(O)c(O)c1 [Propyl Gallate]
2. C1COCCN1
input: Lower Z11-16Ald: 1 or 2 ? Give the chosen item's label as your response.
output: 2

###

# ASSAY_DETAILS: Storage test of aldehyde mixture containing 4-hydroxy-TEMPO and 10 ppm Copper with additive (Example 3)
# MEASUREMENT_CONTEXT: after 55 C 14 days without cap; 10 ppm Copper; before test 8.16, blank 6.48
ENDPOINT_NAME: 16:Ald

COMPOUND	NUMERIC_RESULT
[Na+].[O-][n+]1ccccc1[S-] [Sodium pyrithione]	8.07
CC1(C)CC(O)CC(C)(C)N1[O]	7.51
Nc1nnc(S)s1	7.81
Cc1nnc(S)s1	7.81
CC1(C)CC(=O)CC(C)(C)N1	6.41
Sc1nc2ccccc2[nH]1	7.53
Cn1ccnc1S	7.82
SC1=NCCS1	8.21

###

# ASSAY_DETAILS: Storage test of aldehyde mixture containing 4-hydroxy-TEMPO with additive (Example 4)
# Type: physicochemical
# MEASUREMENT_CONTEXT: after 55° C. 14 days without cap; before test 5.09, without additive 3.71
ENDPOINT_NAME: Z9-16:Ald

COMPOUND	ENDPOINT_NAME	NUMERIC_RESULT
CC1(C)CC(=O)CC(C)(C)N1	Z9-16:Ald	4.03
Nc1nnc(S)s1	Z9-16:Ald	4.46
Sc1nc2ccccc2[nH]1	Z9-16:Ald	3.43
CC1(C)CC(O)CC(C)(C)N1[O]	Z9-16:Ald	4.52
[Na+].[O-][n+]1ccccc1[S-] [Sodium pyrithione]	Z9-16:Ald	5.08
Cn1ccnc1S	Z9-16:Ald	4.88
Cc1nnc(S)s1	Z9-16:Ald	4.38
SC1=NCCS1	Z9-16:Ald	4.64

###

# ASSAY_DETAILS: Accelerated storage test of aldehyde mixture with additive, 40 ppm Cu (Example 1)
# Format: physicochemical
# MEASUREMENT_CONTEXT: after 55° C. 14 days without cap, before test 7.5, blank 6.659339
ENDPOINT_NAME: 16:Ald

COMPOUND	NUMERIC_RESULT
[Na+].[OH-] [Sodium Hydroxide]	6.224
CN(C)CCO	1.242
CC(C)(C)c1cc(O)ccc1O	6.913
CCCOC(=O)c1cc(O)c(O)c(O)c1 [Propyl Gallate]	7.376
Cc1c(C)c2c(c(C)c1O)CCC(C)(CCCC(C)CCCC(C)CCCC(C)C)O2 (racemic)	6.914
[Na+].[O-][n+]1ccccc1[S-] [Sodium pyrithione]	6.675
CC1(C)CC(OC(=O)CCCCCCCCC(=O)OC2CC(C)(C)NC(C)(C)C2)CC(C)(C)N1	6.749
Cc1ccc(O)c(-n2nc3ccccc3n2)c1	6.634
COc1ccc(O)c(C(C)(C)C)c1	7.158
O=S1(=O)CCCC1	6.666
Cc1cc(-n2nc3ccc(Cl)cc3n2)c(O)c(C(C)(C)C)c1	6.835

###

# ASSAY_DETAILS: Storage test of aldehyde mixture containing 4-hydroxy-TEMPO with additive (Example 4)
# Assay type: physicochemical
# MEASUREMENT_CONTEXT: after 55° C. 14 days without cap; before test 1.05, without additive 6.14
ENDPOINT_NAME: 16:Acid

A. Cc1nnc(S)s1 [5-Methyl-1,3,4-thiadiazole-2-thiol]
B. CC1(C)CC(=O)CC(C)(C)N1 [2,2,6,6-tetramethyl-4-piperidone]
input: Endpoint returns the identifier whose 16:Acid is numerically larger, either A or B . // respond with label for picked entry
output: B
